run_description: Cytotoxicity against MDCK cells after 48 hrs by MTT assay
Format: cell-based, Canis lupus familiaris
condition_context: dog, read-out: CTD50
Recorded CC50 at 48 h by entry
Write the number in µM without appending the unit.

// solved cases for CC50 at 48 h follow
| smiles_str | CC50 at 48 h, µM |
| --- | --- |
| CC(=O)c1c(O)c(C)c(O)c2c1OC1=Cc3c(c(C)nn3-c3ccccc3)C(=O)[C@@]12C | 769 |
| CC(=O)C1=C(O)C=C2O[C@]34O[C@@]3(C(C)=O)C(=O)C(C)=C(O)[C@]4(O)[C@@]2(C)C1=O | 190 |
| CC(=O)c1c(O)c(C)c(O)c2c1OC1=CC(=O)/C(=C(/C)NCC(F)(F)C(F)F)C(=O)[C@@]12C | 31.1 |

Would you kindly look at the next entry?
Quick one: CC50 at 48 h of CC(=O)c1c(O)c(C)c(O)c2c1OC1=CC(=O)/C(=C(/C)Nc3ccc(F)cc3)C(=O)[C@@]12C ?
208

----------
run_description: Selectivity index, ratio of CTD50 for MDCK cells to ED50 for influenza virus A/California/07/09 (H1N1) pdm09
Assay type: toxicity, cell-based
condition_context: dog, read-out: Selectivity Index
hey, just use t if measured selectivity ratio is less than 10, otherwise f

| compound | label |
| --- | --- |
| NC(=O)c1ncn([C@@H]2O[C@H](CO)[C@@H](O)[C@H]2O)n1 [RIBAVIRIN] | f |
| CC(=O)c1c(O)c(C)c(O)c2c1OC1=CC(=O)/C(=C(/C)Nc3ccc(Cl)cc3)C(=O)[C@@]12C | t |
| CC(=O)c1c(O)c(C)c(O)c2c1OC1=CC(=O)/C(=C(/C)Nc3ccc(Br)cc3)C(=O)[C@]12C | t |
| CC(=O)c1c(O)c(C)c(O)c2c1OC1=CC(=O)/C(=C(/C)Nc3cccc(F)c3)C(=O)[C@@]12C | t |
| CC(=O)C1=C(O)C=C2O[C@]34O[C@@]3(C(C)=O)C(=O)C(C)=C(O)[C@]4(O)[C@@]2(C)C1=O | f |
| CC(=O)c1c(O)c(C)c(O)c2c1OC1=CC(=O)/C(=C(/C)Nc3ccc(Br)cc3)C(=O)[C@@]12C | t |

Moving on to the next compound.
For CC(=O)c1c(O)c(C)c(O)c2c1OC1=Cc3c(c(C)nn3-c3ccccc3)C(=O)[C@]12C , is the recorded selectivity ratio below the cut-off of 10?
t

----------
System: Influenza A virus
run_description: Antiviral activity against Influenza virus A/California/07/09 (H1N1) pdm09 infected in MDCK cells after 48 hrs followed by incubated in chicken erythrocytes for 1 hr by hemagglutinination based end-point dilution method
Type: functional, Influenza A virus (A/California/07/2009(H1N1))
condition_context: Influenza A virus, pdm09, MDCK; read-out: ED50 (the source's name)
measurement_type: pEC50
Bear in mind: pEC50 is minus log10 of a mol/L concentration; give just that figure.

| molecule | system | pEC50 |
| --- | --- | --- |
| CC(=O)c1c(O)c(C)c(O)c2c1OC1=Cc3c(c(C)nn3-c3ccccc3)C(=O)[C@@]12C | Influenza A virus | 4.21 |
| CC(=O)c1c(O)c(C)c(O)c2c1OC1=CC(=O)/C(=C(/C)Nc3ccc(Br)cc3)C(=O)[C@]12C | Influenza A virus | 4.52 |
| CC(=O)c1c(O)c(C)c(O)c2c1OC1=CC(=O)/C(=C(/C)Nc3cccc(Br)c3)C(=O)[C@]12C | Influenza A virus | 5.01 |
| CC(=O)c1c(O)c(C)c(O)c2c1OC1=CC(=O)/C(=C(/C)NCCC(=O)O)C(=O)[C@]12C | Influenza A virus | 3.40 |
| CC(=O)c1c(O)c(C)c(O)c2c1OC1=Cc3c(c(C)nn3-c3ccccc3)C(=O)[C@]12C | Influenza A virus | 4.24 |
| CC(=O)c1c(O)c(C)c(O)c2c1OC1=Cc3c(c(C)nn3-c3ccccc3)[C@@H](O)[C@@]12C | Influenza A virus | 5.22 |
| CC(=O)c1c(O)c(C)c(O)c2c1OC1=CC(=O)/C(=C(/C)NCCC(=O)O)C(=O)[C@@]12C | Influenza A virus | 5.16 |
| CC(=O)C1=C(O)C=C2Oc3c(C(C)=O)c(O)c(C)c(O)c3[C@]2(C)C1=O [(-)-USNIC ACID] | Influenza A virus | 4.84 |

Would you kindly look at the next entry?
Quick check: pEC50 on Influenza A virus, item CC(=O)c1c(O)c(C)c(O)c2c1OC1=CC(=O)/C(=C(/C)Nc3cccc(F)c3)C(=O)[C@@]12C ?
4.90
